Exercise: for every item that follows, state its recorded pIC50.
target_desc: PAK1 (Homo sapiens)
Sequence (Q13153 whole entry): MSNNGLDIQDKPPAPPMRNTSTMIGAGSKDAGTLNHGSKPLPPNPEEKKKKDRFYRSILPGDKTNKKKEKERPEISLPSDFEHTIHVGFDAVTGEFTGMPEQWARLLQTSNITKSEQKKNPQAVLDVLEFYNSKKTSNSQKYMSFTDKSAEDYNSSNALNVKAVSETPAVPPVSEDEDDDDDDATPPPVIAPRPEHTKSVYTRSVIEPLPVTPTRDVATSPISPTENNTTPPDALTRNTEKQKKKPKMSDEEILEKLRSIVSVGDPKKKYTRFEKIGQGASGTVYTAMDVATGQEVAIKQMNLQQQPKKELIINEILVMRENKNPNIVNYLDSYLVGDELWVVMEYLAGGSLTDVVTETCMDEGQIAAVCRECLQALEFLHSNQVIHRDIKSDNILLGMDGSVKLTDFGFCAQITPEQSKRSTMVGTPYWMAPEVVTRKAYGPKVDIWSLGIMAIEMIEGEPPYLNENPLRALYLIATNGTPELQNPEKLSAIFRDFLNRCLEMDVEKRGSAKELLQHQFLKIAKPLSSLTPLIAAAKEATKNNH
measurement_description: In vitro PAK inhibition assay (Z'-LYTE, SelectScreen), PAK1
Format: biochemical
settings: read-out: PAK1 IC50
Procedure: Compounds are screened in 1% DMSO (final) in the well. For 10 point titrations, 3-fold serial dilutions are conducted. All Peptide/Kinase Mixtures are diluted to a 2× working concentration in the appropriate Kinase Buffer […] 7. Determine the fluorescence using a fluorescence plate reader […] The representative IC50 value with a known inhibitor for each kinase was determined at the ATP bin nearest to the ATP Km app.
pIC50: −log10 of the molar value.

Completed entries (count: 4):
INSERT INTO measurements (molecule, quantity, experimental_value) VALUES
  ('CCn1c(=O)c(-c2ccc(-c3cncc(C)n3)cc2Cl)cc2cnc(NCC3CCC(N)CC3)nc21 (centres unmarked) [Example 131]', 'pIC50', '> 7.30'),
  ('CCn1c(=O)c(-c2ccc(-c3nccnc3C)cc2Cl)cc2cnc(NC3CCN(C(C)=O)C3)nc21 (centres unmarked) [Example 19]', 'pIC50', '6.30 to 7.30'),
  ('CCn1c(=O)c(-c2ccc(-c3cncc(C)c3)cc2Cl)cc2cnc(N[C@@H]3CCOC3)nc21 [Example 61]', 'pIC50', '6.30 to 7.30'),
  ('Cc1nccnc1-c1ccc(-c2cc3cnc(NC4CCOCC4)nc3n(Cc3ccccc3C(F)(F)F)c2=O)c(Cl)c1 [Example 21]', 'pIC50', '> 7.30');

Give pIC50 (PAK1 (Homo sapiens)) of the following molecule: CCn1c(=O)c(-c2ccc(-c3nccnc3C)cc2Cl)cc2cnc(N[C@H]3CC[C@H](N)CC3)nc21 [Example 90]
6.30 to 7.30
